System: common ragweed
Test: Test E pre-/postemergence herbicide test
Assay type: in vivo, Ambrosia elatior
Settings: Preemergence; 250 g ai/ha; scale 0 (no effect) to 100 (complete control)
measurement type: Plant response rating, Ragweed

Below, each entry is followed by its recorded Plant response rating, Ragweed result.
1) CCc1nn(C(C)(C)C)nc1C(=O)Nc1cccc(C(=O)N(C)CC)c1	40
2) CCc1nn(C(C)(C)C)nc1C(=O)Nc1cccc(C(=S)N(C)C)c1	60
3) CCNC(=O)c1cccc(NC(=O)c2nn(C(C)(C)C)nc2C)c1	70

Proceed to the following item.
Name the recorded Plant response rating, Ragweed for "CCc1nn(C(C)(C)C)cc1C(=O)Nc1cc(C(=O)N(C)C)ccn1" .
70
